# Study Target: T1, human glypican-3 (GPC3) (human, UniProt P51654 25-554)
# T1 construct: Endogenous on JHH-7, JHH-5, HepG2 and NCI-H446 tumour cells, or transiently expressed on CHO-S cells from a pTT5 plasmid; also called hGPC3; huGPC3
# Experiment: flow cytometry on JHH-7 cells; antibody after 14 days in mouse plasma at 37 C
pKd: −log10 of the molar value.
Measurement Kind: pKd

1. H18L6_LC_G34A mAb, v40212 (antibody, human IgG1, kappa, V domains shown, M3-H18L6 chains with the stated light chain point mutation, IgG1/kappa) VH: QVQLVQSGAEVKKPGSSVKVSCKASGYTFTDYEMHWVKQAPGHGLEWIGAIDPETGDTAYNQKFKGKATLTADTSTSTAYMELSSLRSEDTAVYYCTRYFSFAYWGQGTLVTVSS VL: EIVLTQSPATLSLSPGERATISCRSSQSLRHSNANTYLQWYQQKPGQAPRLLIYKVSNRFSGVPARFSGSGSGTDFTLTISSLEPEDFAVYFCYQSKHVPYTFGGGTKVEIKR; 9.55
2. H18L6_LC_G34K mAb, v40207 (antibody, human IgG1, kappa, V domains shown, Full-size IgG1/kappa) VH: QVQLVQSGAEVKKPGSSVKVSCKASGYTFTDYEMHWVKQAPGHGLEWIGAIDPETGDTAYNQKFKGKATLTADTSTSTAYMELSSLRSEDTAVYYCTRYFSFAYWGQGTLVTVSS VL: EIVLTQSPATLSLSPGERATISCRSSQSLRHSNKNTYLQWYQQKPGQAPRLLIYKVSNRFSGVPARFSGSGSGTDFTLTISSLEPEDFAVYFCYQSKHVPYTFGGGTKVEIKR; 9.51
3. H18L6_LC_G34D mAb, v40203 (antibody, human IgG1, kappa, V domains shown) VH: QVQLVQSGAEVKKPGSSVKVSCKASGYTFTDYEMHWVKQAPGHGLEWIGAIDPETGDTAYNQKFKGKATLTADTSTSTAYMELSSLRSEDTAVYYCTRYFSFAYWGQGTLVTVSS VL: EIVLTQSPATLSLSPGERATISCRSSQSLRHSNDNTYLQWYQQKPGQAPRLLIYKVSNRFSGVPARFSGSGSGTDFTLTISSLEPEDFAVYFCYQSKHVPYTFGGGTKVEIKR; 9.21
4. H18L6_LC_G34R mAb, v40206 (antibody, human IgG1, kappa, V domains shown, Full-size IgG1/kappa) VH: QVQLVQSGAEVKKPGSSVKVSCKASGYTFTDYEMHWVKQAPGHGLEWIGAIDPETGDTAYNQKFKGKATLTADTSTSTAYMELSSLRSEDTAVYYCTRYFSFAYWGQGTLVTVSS VL: EIVLTQSPATLSLSPGERATISCRSSQSLRHSNRNTYLQWYQQKPGQAPRLLIYKVSNRFSGVPARFSGSGSGTDFTLTISSLEPEDFAVYFCYQSKHVPYTFGGGTKVEIKR; 9.41
5. H18L6_LC_G34E mAb, v40204 (antibody, human IgG1, kappa, V domains shown, M3-H18L6 chains with the stated light chain point mutation, IgG1/kappa) VH: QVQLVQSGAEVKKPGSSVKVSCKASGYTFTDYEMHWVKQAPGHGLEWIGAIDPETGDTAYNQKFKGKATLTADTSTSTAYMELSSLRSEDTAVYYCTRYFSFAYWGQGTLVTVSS VL: EIVLTQSPATLSLSPGERATISCRSSQSLRHSNENTYLQWYQQKPGQAPRLLIYKVSNRFSGVPARFSGSGSGTDFTLTISSLEPEDFAVYFCYQSKHVPYTFGGGTKVEIKR; 9.17
6. H18L6_LC_G34Q mAb, v40208 (antibody, human IgG1, kappa, V domains shown, Full-size IgG1/kappa) VH: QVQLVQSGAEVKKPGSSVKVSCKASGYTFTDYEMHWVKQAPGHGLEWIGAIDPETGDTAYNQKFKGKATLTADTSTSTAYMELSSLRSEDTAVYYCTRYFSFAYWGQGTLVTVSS VL: EIVLTQSPATLSLSPGERATISCRSSQSLRHSNQNTYLQWYQQKPGQAPRLLIYKVSNRFSGVPARFSGSGSGTDFTLTISSLEPEDFAVYFCYQSKHVPYTFGGGTKVEIKR; 9.64

Origin of measurements: patent US20250295799A1
